# tgt: T1, HLA-DR7 (DRB1*0701) (human)
# T1 chain 1: not shown
# T1 chain 2: not shown
# procedure_text: competition ELISA, purified HLA II; tracer biotinylated YKL
readout_type: IC50 (nM)
Expressed in nM, but write only the number.

[[record]]
binder = "DAHFLSQTKQSGENL (modifications not checked) [29N 1569-1583]"
recorded_measurement = 3000


--- query ---
Give me measured IC50, please, for this binder: TRGLLGCIITSLTGRDKNQV (modifications not checked) [9N 1036-1055, P26664 1036-1055]
2600
